conditions: in isopropanol, 308.15 K
REPORTED PROPERTY: solubility (mole fraction)

Please give the measured solubility (mole fraction) for this compound: `Nc1ccc(S(=O)(=O)Nc2ncccn2)cc1` 0.000123

###

conditions: in methanol, 313.15 K
REPORTED PROPERTY: solubility (mole fraction)
The response must contain the number and no unit.

Please give the measured solubility (mole fraction) for this molecule: `Nc1ccc(S(=O)(=O)Nc2ncccn2)cc1` 0.000377

###

settings: in ethanol, 308.15 K
REPORTED PROPERTY: solubility (mole fraction)
The response must contain the number and no unit.

Please give the measured solubility (mole fraction) for this molecule: `Nc1ccc(S(=O)(=O)Nc2ncccn2)cc1` 7e-05

###

settings: in ethanol, 313.15 K
REPORTED PROPERTY: solubility (mole fraction)

Please give the measured solubility (mole fraction) for this compound: `Nc1ccc(S(=O)(=O)Nc2ncccn2)cc1` 7.56e-05

###

settings: in acetone, 318.15 K
REPORTED PROPERTY: solubility (mole fraction)
The response must contain the number and no unit.

Please give the measured solubility (mole fraction) for this compound: `Nc1ccc(S(=O)(=O)Nc2ncccn2)cc1` 0.00012

###

settings: in methanol, 294.15 K
REPORTED PROPERTY: solubility (mole fraction)
The response must contain the number and no unit.

Please give the measured solubility (mole fraction) for this compound: `Nc1ccc(S(=O)(=O)Nc2ncccn2)cc1` 0.000265

###

details: in chloroform, 308.15 K
REPORTED PROPERTY: solubility (mole fraction)
The response must contain the number and no unit.

Please give the measured solubility (mole fraction) for this compound: `Nc1ccc(S(=O)(=O)Nc2ncccn2)cc1` 2.15e-05

###

conditions: in n-propanol, 308.15 K
REPORTED PROPERTY: solubility (mole fraction)
The response must contain the number and no unit.

Please give the measured solubility (mole fraction) for this compound: `Nc1ccc(S(=O)(=O)Nc2ncccn2)cc1` 0.000208

###

conditions: in ethanol, 298.15 K
REPORTED PROPERTY: solubility (mole fraction)

Please give the measured solubility (mole fraction) for this compound: `Nc1ccc(S(=O)(=O)Nc2ncccn2)cc1` 4.8e-05

###

conditions: in acetone, 303.15 K
REPORTED PROPERTY: solubility (mole fraction)

Please give the measured solubility (mole fraction) for this compound: `Nc1ccc(S(=O)(=O)Nc2ncccn2)cc1` 9.17e-05

###

details: in acetone, 313.15 K
REPORTED PROPERTY: solubility (mole fraction)
The response must contain the number and no unit.

Please give the measured solubility (mole fraction) for this compound: `Nc1ccc(S(=O)(=O)Nc2ncccn2)cc1` 0.000115

###

settings: in chloroform, 303.15 K
REPORTED PROPERTY: solubility (mole fraction)
The response must contain the number and no unit.

Please give the measured solubility (mole fraction) for this compound: `Nc1ccc(S(=O)(=O)Nc2ncccn2)cc1` 1.54e-05

###

details: in chloroform, 298.15 K
REPORTED PROPERTY: solubility (mole fraction)

Please give the measured solubility (mole fraction) for this compound: `Nc1ccc(S(=O)(=O)Nc2ncccn2)cc1` 9.26e-06

###

settings: in n-propanol, 294.15 K
REPORTED PROPERTY: solubility (mole fraction)
The response must contain the number and no unit.

Please give the measured solubility (mole fraction) for this compound: `Nc1ccc(S(=O)(=O)Nc2ncccn2)cc1` 9.66e-05

###

conditions: in acetone, 298.15 K
REPORTED PROPERTY: solubility (mole fraction)

Please give the measured solubility (mole fraction) for this compound: `Nc1ccc(S(=O)(=O)Nc2ncccn2)cc1` 7.34e-05

###

conditions: in ethanol, 303.15 K
REPORTED PROPERTY: solubility (mole fraction)
The response must contain the number and no unit.

Please give the measured solubility (mole fraction) for this compound: `Nc1ccc(S(=O)(=O)Nc2ncccn2)cc1` 6.01e-05

###

conditions: in acetone, 308.15 K
REPORTED PROPERTY: solubility (mole fraction)
The response must contain the number and no unit.

Please give the measured solubility (mole fraction) for this compound: `Nc1ccc(S(=O)(=O)Nc2ncccn2)cc1` 0.000106

###

details: in chloroform, 294.15 K
REPORTED PROPERTY: solubility (mole fraction)
The response must contain the number and no unit.

Please give the measured solubility (mole fraction) for this compound: `Nc1ccc(S(=O)(=O)Nc2ncccn2)cc1` 5.47e-06

###

conditions: in n-propanol, 298.15 K
REPORTED PROPERTY: solubility (mole fraction)
The response must contain the number and no unit.

Please give the measured solubility (mole fraction) for this molecule: `Nc1ccc(S(=O)(=O)Nc2ncccn2)cc1` 0.000124

###

conditions: in methanol, 318.15 K
REPORTED PROPERTY: solubility (mole fraction)
The response must contain the number and no unit.

Please give the measured solubility (mole fraction) for this compound: `Nc1ccc(S(=O)(=O)Nc2ncccn2)cc1` 0.000409

###

conditions: in isopropanol, 313.15 K
REPORTED PROPERTY: solubility (mole fraction)
The response must contain the number and no unit.

Please give the measured solubility (mole fraction) for this compound: `Nc1ccc(S(=O)(=O)Nc2ncccn2)cc1` 0.000134

###

conditions: in n-propanol, 318.15 K
REPORTED PROPERTY: solubility (mole fraction)

Please give the measured solubility (mole fraction) for this molecule: `Nc1ccc(S(=O)(=O)Nc2ncccn2)cc1` 0.000279

###

details: in methanol, 308.15 K
REPORTED PROPERTY: solubility (mole fraction)

Please give the measured solubility (mole fraction) for this molecule: `Nc1ccc(S(=O)(=O)Nc2ncccn2)cc1` 0.000343

###

conditions: in chloroform, 313.15 K
REPORTED PROPERTY: solubility (mole fraction)
The response must contain the number and no unit.

Please give the measured solubility (mole fraction) for this compound: `Nc1ccc(S(=O)(=O)Nc2ncccn2)cc1` 2.57e-05

###

settings: in ethanol, 294.15 K
REPORTED PROPERTY: solubility (mole fraction)
The response must contain the number and no unit.

Please give the measured solubility (mole fraction) for this compound: `Nc1ccc(S(=O)(=O)Nc2ncccn2)cc1` 3.8e-05
